For each entry below, report its composite z-score value.
system: PRMT1 (protein arginine N-methyltransferase 1); assay: small molecules binding arginine methyltransferase PRMT1 – biochemical, small-molecule microarray, 635 nm fluorescence, primary screen (AID 1088); conditions: higher = more signal;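 further: binding of Prmt1 protein to compounds spotted on small-molecule microarray slides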
// keep it numeric: no unit symbol after the value

Name the recorded composite z-score of the item COc1ccc([Si](C)(C)[C@@H]2[C@@H](CCn3cc([C@H](O)c4ccccc4)nn3)O[C@]3(C(=O)N(C)c4ccccc43)[C@H]2C)cc1 in your answer.
0.384

Tell me composite z-score reported for C[N+](C)(C)CCCCNC(=O)[C@H]1C[C@H]2C(=O)N3CCC[C@H]3C(=O)N2[C@H]1c1ccc(O)cc1
1.54

State, in one line, measured composite z-score of O=C1O[C@@H](c2ccccc2)[C@@H](c2ccccc2)N2[C@@H](c3ccc(O)cc3)[C@]3(C(=O)Nc4ccccc43)[C@@H](C(=O)N3CCCCCCC3)[C@H]12
1.54

Give composite z-score for the following molecule: O[C@@H](Cc1ccccc1)[C@@H](/C=C/c1ccccc1)NCc1ccccc1Br
-0.995

For the molecule C=CC[C@@]1(C(=O)OC)N=C(c2ccc(OCCCO)cc2)O[C@@H]1c1ccccc1CN=[N+]=[N-] , report composite z-score.
1.3

Give the reported composite z-score for this molecule. COc1ccc([Si](C)(C)[C@H]2[C@H](CC(=O)N3Cc4ccccc4C[C@H]3CO)O[C@@]3(C(=O)N(Cc4cccc(I)c4)c4ccccc43)[C@@H]2C)cc1
1.55

Note down composite z-score recorded for COc1ccc([Si](C)(C)[C@@H]2[C@@H](CCO)O[C@]3(C(=O)N(Cc4cccc(N(C=O)c5ccccc5)c4)c4ccccc43)[C@H]2C)cc1
1.12

Assign composite z-score to the following record: O=C1OCC=C[C@H]2OC34C=CCN(CCN5CCOCC5)C(=O)[C@H]3N(CCCCCCO)C(=O)[C@@H]4[C@@H]12 (some centres undefined)
0.171

Complete the entry with composite z-score for CCCNC(=O)[C@@]1(c2ccc([N+](=O)[O-])cc2)CC(=O)N(CC23CC4CC(CC(C4)C2)C3)[C@@H]1c1ccc(CO)cc1I
1.14

# return recorded composite z-score for input C=CCN1Cc2ccccc2C[C@]2(N=C(c3ccc(OCCCO)cc3)O[C@@H]2c2ccccc2)C1=O
1.56

Recall and state the measured composite z-score for C=CCN1Cc2ccccc2C[C@@]2(COC(c3ccc(OCCCO)cc3)=N2)C1=O .
1.5

Please look at this molecule and report its composite z-score: CC(C)(C)OC(=O)CC[C@@]1(C(=O)NCC(O)CO)N=C(c2ccc(OCCCO)cc2)O[C@@H]1c1ccccc1 (some centres undefined)
1.46

Tell us which composite z-score value is on record for COCCCNC(=O)[C@@]1(C)c2ccccc2C(=O)N(Cc2ccccc2)[C@H]1c1ccc(CO)cc1
1.46

Fill in reported composite z-score for this entry: COC(=O)[C@@]1(Cc2ccc(OC)cc2)[C@H]2c3cc(C(=O)N(C)C)n(CCSCCO)c3C[C@H]2CN1C(=O)c1ccccc1
0.359

Read off the recorded composite z-score for C=CCCN(CC#C[C@H]1Oc2ccccc2S(=O)(=O)N2CCC[C@@H]12)S(=O)(=O)c1ccc(C)cc1
0.514

Provide composite z-score value for the following molecule: C=CCNC(=O)[C@@H]1[C@H]2C(=O)O[C@H](c3ccccc3)[C@H](c3ccccc3)N2[C@H](c2ccccc2OCCO)[C@@]12C(=O)N(C(=O)OCCOC)c1ccc(C#CCC(C(=O)OC)C(=O)OC)cc12
1.53

Identify composite z-score associated with the molecule [N-]=[N+]=NCc1ccccc1[C@@H]1OC(c2ccc(OCCCO)cc2)=N[C@]1(Cc1ccccc1)C(=O)O
1.54

Write down composite z-score measured for item Cc1ccc(N2C(=O)c3ccccc3[C@](C)(C(=O)NCCN3CCOCC3)[C@@H]2c2ccc(CO)cc2)nc1
-0.405

Provide composite z-score value for the following molecule: COC(=O)[C@@]1(Cc2ccc(OC)cc2)[C@H]2c3cc(C(=O)N4CCCC4)n(CCc4ccccn4)c3C[C@H]2CN1C(=O)c1ccccc1
-1.52

Report measured composite z-score; entry is C=C[C@@H](C)[C@@H](OC(=O)Nc1ccc(OC)cc1)c1ccc(O)c2ccccc12
0.906

Supply measured composite z-score of C=CCC(OC(C)=O)[C@@H]1[C@@H](N(Cc2ccc(-c3ccccc3)cc2)C(=O)c2ccc(C)cc2)c2cc(OCCCO)ccc2N1C(=O)c1ccc2ccccc2n1 (some centres undefined) in your reply.
-0.11

Using the record for CC(C)N1C(=O)c2ccccc2[C@](C)(C(=O)NCCCN(C)C)[C@@H]1c1ccc(CO)cc1 , state its measured composite z-score.
-0.109

Assign composite z-score to the following record: C[C@]1(C(=O)NCC(F)(F)F)c2ccccc2C(=O)N(Cc2cc(F)cc(C(F)(F)F)c2)[C@H]1c1ccc(CO)cc1
1.38

Give recorded composite z-score. CS(=O)(=O)CCOC(=O)C1=CC(c2ccc(CO)cc2)=CC(c2cccs2)N(Cc2cccc(OC(F)(F)F)c2)C=C1C(=O)OCCS(C)(=O)=O (centres undefined)
1.34

Return value of composite z-score for input COCCn1c(C(=O)N(C)C)cc2c1C[C@H]1CN(C(=O)c3ccccc3)[C@@](Cc3ccc(F)cc3)(C(=O)OC)[C@@H]21 , no commentary.
0.0294

Please list composite z-score recorded for the molecule CCCCN1CC=CC23O[C@@H]4/C=C\CCCOC(=O)C4[C@H]2C(=O)N(C(C)CO)[C@@H]3C1=O (some centres undefined)
-0.376

Quick one: give measured composite z-score for CCCC[C@@H]1C[C@H]1[C@@H](NC(=O)c1ccccc1)c1ccccc1
-0.352

Please supply the value of reported composite z-score for the item CCOC(=O)C1=CC[C@@H](c2cccc(Cl)c2)N(S(=O)(=O)c2ccc(C)cc2)[C@H]1c1ccc(C#N)cc1
1.56

Provide composite z-score value for the following molecule: C=CCC(OC(C)=O)[C@@H]1[C@@H](N(Cc2cc3ccccc3o2)C(=O)c2ccc(-c3ccccc3)cc2)c2cc(OCCCO)ccc2N1C(=O)Cc1ccc2ccccc2c1 (some centres undefined)
-0.598

====

experiment: JC-1 mitochondrial signal, unstimulated adipocytes – cell-based, JC-1 fluorescence, 3T3-L1 adipocytes, 24 h, 100 nL compound, profiling panel (AID 1168); conditions: JC-1 mitochondrial fluorescence, higher = more signal, called active from +8 up or from −8 down; further: test concentration not given here
For each record, write down the corresponding z-score.
No unit in the answer, please; the number alone is enough.

Supply measured z-score of Cc1ccc(N2C(=O)c3ccccc3[C@@H](C(=O)NC(C)C)[C@@H]2c2ccc(CO)cc2)nc1 in your reply.
-0.286

Note down z-score recorded for COCCOC(=O)N1C(=O)[C@@]2(c3ccccc31)[C@H](C(=O)N1CCCCCCC1)[C@H]1C(=O)O[C@H](c3ccccc3)[C@H](c3ccccc3)N1[C@@H]2c1ccccc1OCCO
-0.226

Provide only the value of recorded z-score for COC(=O)[C@@]1(Cc2ccc(F)cc2)[C@H]2c3cc(C(=O)N4CCCC4)n(CCc4ccc(OC)c(Br)c4)c3C[C@H]2CN1C(=O)c1ccccc1
-0.317

Identify measured z-score corresponding to CC(C)(C)OC(=O)CC[C@]1(C(=O)NCC(O)CO)N=C(c2ccc(OCCCO)cc2)O[C@H]1c1ccccc1CN=[N+]=[N-] (stereo not given in full)
-0.484

Name the recorded z-score of the compound listed here: O=C(NCC(O)CO)[C@@]1(Cc2ccccc2)COC(c2ccc(OCCCO)cc2)=N1 (stereo not given in full)
-0.817

Name the recorded z-score of the item CN1C(=O)C2C=CC(C(O)C3=C[C@H]4C[C@@H](C3)C4(C)C)N(Nc3ccc([N+](=O)[O-])cc3[N+](=O)[O-])C2C1=O (stereo not given in full) in your answer.
-1.35

Consider the compound C=CC[C@@]1(C(=O)NCc2ccccc2)N=C(c2ccc(OCCCO)cc2)O[C@@H]1c1ccccc1CN=[N+]=[N-] and give its recorded z-score.
-1.85

Give the reported value of z-score for this record: CC1(C)C(=O)C(c2ccccc2)=C2CN3C(=O)N(CCc4ccccc4)C(=O)C3(Cc3ccccc3)C=C21 (stereo not given)
-0.385

Hello, please tell me recorded z-score for this one: O=C1C2C=CC(C(O)CCc3ccccc3)N(Nc3ccccc3)C2C(=O)N1c1ccccc1 (stereo not given)
-0.727

Give the reported z-score for this compound. Cc1ccc(S[C@]2(C(=O)NCCN3CCOCC3)CC(=O)N(C3CCCCC3)[C@@H]2c2ccc(CO)cc2)cc1
-0.281

Please indicate z-score recorded for C=CC[C@]1(C(=O)NCCN2CCOCC2)N=C(c2ccc(OCCCO)cc2)O[C@H]1c1ccccc1N=[N+]=[N-]
1.98

Provide only the value of recorded z-score for O=C1C2C=CC(C(O)c3ccc(B(O)O)cc3)N(Nc3ccc([N+](=O)[O-])cc3)C2C(=O)N1c1ccccc1 (stereo not given)
3.71

Specify z-score for C=CCCN(CC#C[C@H]1Oc2ccccc2S(=O)(=O)N2CCC[C@@H]12)S(=O)(=O)c1ccc(C)cc1 and stop.
-0.184

Answer with the recorded z-score for the compound listed here: CO[C@H]1O[C@H](CO)[C@@H](OC(=O)Nc2ccccc2-c2ccccc2)[C@H](OC(=O)Nc2ccccc2-c2ccccc2)[C@H]1OC(=O)Nc1ccccc1-c1ccccc1
0.908

Return reported z-score. Input compound: O=C1OCCC=C[C@H]2OC34C=CCN(CCN5CCOCC5)C(=O)[C@H]3N(CCO)C(=O)[C@@H]4C12 (stereo not given in full)
-0.293
